Target: human CD33 G58A (human, UniProt P20138 18-364)
Sequence (P20138 18-364 G58A limits assumed): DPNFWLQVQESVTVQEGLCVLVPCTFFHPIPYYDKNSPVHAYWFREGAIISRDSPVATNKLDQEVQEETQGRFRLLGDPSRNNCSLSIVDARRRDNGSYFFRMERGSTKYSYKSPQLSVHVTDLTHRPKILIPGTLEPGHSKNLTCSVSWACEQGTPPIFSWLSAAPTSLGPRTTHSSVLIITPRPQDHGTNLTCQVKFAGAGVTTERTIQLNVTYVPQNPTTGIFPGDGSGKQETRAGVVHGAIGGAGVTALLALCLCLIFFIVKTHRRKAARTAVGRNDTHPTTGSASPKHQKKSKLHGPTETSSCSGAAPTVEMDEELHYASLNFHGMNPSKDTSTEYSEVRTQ
Test: alanine scan, flow cytometry;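 further: HEK293-T cells transiently expressing single-residue alanine mutants of CD33 (alanine swapped to serine), antibody binding read by fluorescence in duplicate, background-subtracted, expressed relative to wild-type CD33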
Readout label: Mean % WT Binding (% WT)
Give bare numbers, in % WT.

**Q:** Which Mean % WT Binding reading was recorded for the binder Refmab #3 (antibody, V domains shown, Full-length format is human IgG1 Fc silent (PG-LALA); The alanine scan used IgG or Fab) VH: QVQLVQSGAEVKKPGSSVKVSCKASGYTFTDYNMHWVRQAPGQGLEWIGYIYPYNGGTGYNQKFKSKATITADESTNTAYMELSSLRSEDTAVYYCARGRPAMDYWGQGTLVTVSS VL: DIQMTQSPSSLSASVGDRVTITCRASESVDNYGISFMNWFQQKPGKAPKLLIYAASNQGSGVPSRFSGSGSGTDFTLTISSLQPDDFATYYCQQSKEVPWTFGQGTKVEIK ?
**A:** 87.4

**Q:** Which Mean % WT Binding reading was recorded for the binder Refmab #1 (antibody, V domains shown, Full-length format is human IgG1 (Absolute Antibody Ab00283-10.0); The alanine scan used IgG or Fab; also called hP67.6) VH: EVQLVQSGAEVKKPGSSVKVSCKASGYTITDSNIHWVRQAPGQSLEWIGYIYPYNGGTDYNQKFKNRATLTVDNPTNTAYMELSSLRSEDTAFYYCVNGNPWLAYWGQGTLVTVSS VL: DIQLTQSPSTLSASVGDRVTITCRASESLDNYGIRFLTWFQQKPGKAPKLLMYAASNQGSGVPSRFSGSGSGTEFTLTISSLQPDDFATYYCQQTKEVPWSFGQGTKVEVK ?
**A:** 77.4

Let us examine a further case.
**Q:** Which Mean % WT Binding reading was recorded for the binder Refmab #4 (antibody, V domains shown, Full-length format is human IgG1 Fc silent (PG-LALA); The alanine scan used IgG or Fab) VH: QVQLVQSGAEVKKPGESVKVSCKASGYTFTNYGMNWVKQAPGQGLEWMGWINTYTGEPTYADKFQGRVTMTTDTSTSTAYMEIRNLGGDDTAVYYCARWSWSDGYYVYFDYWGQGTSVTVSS VL: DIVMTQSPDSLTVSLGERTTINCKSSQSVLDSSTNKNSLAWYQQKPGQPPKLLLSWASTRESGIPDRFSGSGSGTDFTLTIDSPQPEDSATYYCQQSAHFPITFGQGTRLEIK ?
**A:** 62.2

src = patent US20260242735A1
